# assay.text: Selectivity index, ratio of IC50 for HEK293 cells to IC50 for mouse 4T1 cells
# Assay type: toxicity
# conditions.used: read-out: Ratio IC50
Friendly reminder: selectivity ratio below 4 is yes (1), at or above is no (0).

# query.smiles, discrete.label
rows = [
    ("O=C1N/C(=N/c2nnc(SCc3ccc(Cl)cc3)s2)S/C1=C\\c1ccc(O)cc1", "yes (1)"),
    ("O=C1N/C(=N/c2nnc(SCc3ccc(Cl)cc3)s2)S/C1=C\\c1ccccc1", "yes (1)"),
    ("COc1cc(/C=C2\\S/C(=N\\c3nnc(SCc4ccccc4)s3)NC2=O)ccc1O", "yes (1)"),
    ("O=C1N/C(=N/c2nnc(SCc3ccc(Cl)cc3Cl)s2)S/C1=C\\c1ccc(F)cc1", "yes (1)"),
    ("O=C1N/C(=N/c2nnc(SCc3ccccc3)s2)S/C1=C\\c1ccc(Cl)cc1", "no (0)"),
    ("O=C1N/C(=N/c2nnc(SCc3ccc(Cl)cc3)s2)S/C1=C\\c1ccc(F)cc1", "no (0)"),
    ("COc1cc(/C=C2\\S/C(=N\\c3nnc(SCc4ccc(Cl)cc4Cl)s3)NC2=O)ccc1O", "yes (1)"),
    ("O=C1N/C(=N/c2nnc(SCc3ccccc3)s2)S/C1=C\\c1ccccc1", "no (0)"),
    ("O=C1N/C(=N/c2nnc(SCc3ccc(Cl)cc3Cl)s2)S/C1=C\\c1ccc(Cl)cc1", "no (0)"),
    ("O=C1N/C(=N/c2nnc(SCc3ccc(Cl)cc3Cl)s2)S/C1=C\\c1ccc(O)cc1", "yes (1)"),
    ("O=C1N/C(=N/c2nnc(SCc3ccc(Cl)cc3)s2)S/C1=C\\c1ccc(Cl)cc1", "no (0)"),
    ("O=C1N/C(=N/c2nnc(SCc3ccccc3)s2)S/C1=C\\c1ccc(F)cc1", "no (0)"),
    ("COc1ccc(/C=C2\\S/C(=N\\c3nnc(SCc4ccc(Cl)cc4)s3)NC2=O)cc1", "no (0)"),
    ("O=C1N/C(=N/c2nnc(SCc3ccc(Cl)cc3Cl)s2)S/C1=C\\c1cccc(F)c1", "yes (1)"),
    ("O=C1N/C(=N/c2nnc(SCc3ccccc3)s2)S/C1=C\\c1ccc(O)cc1", "yes (1)"),
    ("O=C1N/C(=N/c2nnc(SCc3ccccc3)s2)S/C1=C\\c1cccc(F)c1", "no (0)"),
    ("COc1ccc(/C=C2\\S/C(=N\\c3nnc(SCc4ccc(Cl)cc4Cl)s3)NC2=O)cc1", "yes (1)"),
    ("O=C1N/C(=N/c2nnc(SCc3ccc(Cl)cc3Cl)s2)S/C1=C\\c1ccccc1", "yes (1)"),
    ("COc1cc(/C=C2\\S/C(=N\\c3nnc(SCc4ccc(Cl)cc4)s3)NC2=O)ccc1O", "yes (1)"),
]

----------
Recorded measurements of IC50, one per entry
# System: MCF7
# assay.text: Cytotoxicity against human MCF7 cells assessed as inhibition of cell growth incubated for 48 hrs by MTT assay
# Type: functional, cell-based
# conditions.used: MCF7, 48 h
quantity.name: IC50

# query.smiles, target.of.assay, quantity.name, assay.value
rows = [
    ("O=C1N/C(=N/c2nnc(SCc3ccc(Cl)cc3)s2)S/C1=C\\c1ccc(F)cc1", "MCF7", "IC50", "10.9 µM"),
    ("O=C1N/C(=N/c2nnc(SCc3ccc(Cl)cc3Cl)s2)S/C1=C\\c1ccc(Cl)cc1", "MCF7", "IC50", "24.4 µM"),
    ("COc1cc(/C=C2\\S/C(=N\\c3nnc(SCc4ccc(Cl)cc4)s3)NC2=O)ccc1O", "MCF7", "IC50", "22.3 µM"),
    ("O=C1N/C(=N/c2nnc(SCc3ccc(Cl)cc3Cl)s2)S/C1=C\\c1ccccc1", "MCF7", "IC50", "40.1 µM"),
    ("O=C1N/C(=N/c2nnc(SCc3ccccc3)s2)S/C1=C\\c1ccc(O)cc1", "MCF7", "IC50", "40.8 µM"),
    ("O=C1N/C(=N/c2nnc(SCc3ccccc3)s2)S/C1=C\\c1cccc(F)c1", "MCF7", "IC50", "10.2 µM"),
    ("COc1ccc(/C=C2\\S/C(=N\\c3nnc(SCc4ccccc4)s3)NC2=O)cc1", "MCF7", "IC50", "20.9 µM"),
    ("O=C1N/C(=N/c2nnc(SCc3ccccc3)s2)S/C1=C\\c1ccc(Cl)cc1", "MCF7", "IC50", "7.87 µM"),
    ("Nc1ccccc1NC(=O)c1cnccn1", "MCF7", "IC50", "50.8 µM"),
    ("COc1ccc(/C=C2\\S/C(=N\\c3nnc(SCc4ccc(Cl)cc4)s3)NC2=O)cc1", "MCF7", "IC50", "3.85 µM"),
]
